B1: GFOD1 (parent)
chain: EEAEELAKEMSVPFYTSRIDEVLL

variants of: B1; assay: protein stability index of a GFP-peptide fusion (GPS, HEK-293T) (PSI 1-6); higher = more stable; details: c terminus: a fixed tail appended;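 further: lentivirally expressed fusions sorted by FACS into six bins by GFP to DsRed ratio, PSI derived from sequencing read proportions per bin multiplied by bin number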
Task for the reader: assign each of the following variants its reported protein stability index.
Answers are plain numbers.

Guide cases for protein stability index, answers given:
Problem: Endpoint output: protein stability index of E5L . Value?
Solution: 4.05

Problem: Endpoint output: protein stability index of K8G . Value?
Solution: 4.1

Problem: Endpoint output: protein stability index of E9D . Value?
Solution: 3.93

Problem: Endpoint output: protein stability index of E5D . Value?
Solution: 3.93

Problem: Endpoint output: protein stability index of A7V . Value?
Solution: 4.01

For every item below, please supply its protein stability index.
1. S17N
2. T16H
3. P13E

Solution:
4.04
3.93
3.97

Just for reference, the supplement of paper PMC10567573 is where these values come from.
